Method: Human liver microsome stability assay
Type: in vitro ADME
Condition Context: both sexes, human, microsomes, pH 7.4
Please use 1 whenever half-life at 0.5 μM is not below 60 min, and -1 whenever it is.

{"Cpd Smiles": "Cn1cc(-c2cc(-c3cccc(C#N)c3)ccc2OCC2CC2)c2cc[nH]c2c1=O", "Assigned Label": -1}
{"Cpd Smiles": "Cn1cc(-c2cc(S(C)(=O)=O)ccc2Oc2ccc(F)cc2F)c2cc(C(=O)N3CCOCC3)[nH]c2c1=O", "Assigned Label": 1}
{"Cpd Smiles": "CCS(=O)(=O)c1ccc(OC2CCS(=O)(=O)CC2)c(-c2cn(C)c(=O)c3[nH]ccc23)c1", "Assigned Label": 1}
{"Cpd Smiles": "Cn1cc(-c2cc(C(=O)Nc3nccs3)ccc2Oc2ccccc2)c2cc[nH]c2c1=O", "Assigned Label": -1}
{"Cpd Smiles": "Cn1cc(-c2cc(S(C)(=O)=O)ccc2Oc2ccc(F)cc2F)c2cc(C(N)=O)[nH]c2c1=O", "Assigned Label": 1}

Please indicate if the recorded half-life at 0.5 μM for Cn1nc(-c2cc(N)ccc2Oc2ccc(F)cc2F)c2cc[nH]c2c1=O meets or exceeds 60 min.
-1

Item Cn1cc(-c2cc(S(C)(=O)=O)ccc2Oc2cccc3ccncc23)c2cc[nH]c2c1=O with half-life at 0.5 μM of 60 min or above?
-1

Textbook exercise: given the entry CCS(=O)(=O)Nc1ccc(Oc2ccc(F)cc2F)c(-c2cn(C)c(=O)c3[nH]c(CO)cc23)c1 , state whether its half-life at 0.5 μM is greater than or equal to 60 min.
1

====

Method: Human liver microsome stability assay
Format: in vitro ADME
Condition Context: both sexes, human, microsomes, pH 7.4
Give measured half-life at 0.5 μM for each item. Keep answers brief.

{"Molecule": "Cn1cc(-c2cc(S(C)(=O)=O)ccc2Oc2ccc(S(C)(=O)=O)cc2)c2cc[nH]c2c1=O [Example 270]", "half-life at 0.5 μM": "> 2 h"}
{"Molecule": "Cn1cc(-c2cc(S(C)(=O)=O)ccc2Oc2cc(F)c(F)c(F)c2)c2cc[nH]c2c1=O [Example 194]", "half-life at 0.5 μM": "0.683 h"}

With those in mind, consider the next molecule.
Identify measured half-life at 0.5 μM corresponding to CNS(=O)(=O)c1cnc(OC2CCOC2)c(-c2cn(C)c(=O)c3[nH]ccc23)c1 (stereo not drawn) [Example 87]
> 2 h

====

Test Target: human BRD4 second bromodomain (BDII_E352-M457) (Homo sapiens (Human))
Method: TR-FRET bromodomain binding assay, BRD4 second bromodomain
Test Readout: Ki (nM)
Answers are plain numbers, in nM.

List the reported Ki of each compound below.
1. CCS(=O)(=O)c1ccc(O[C@H]2CC[C@H](OC)CC2)c(-c2cn(C)c(=O)c3[nH]ccc23)c1
2. Cn1cc(-c2cc(S(=O)(=O)C3CC3)ccc2Oc2ccc(F)cc2F)c2cc[nH]c2c1=O
3. Cc1ccc(F)cc1Oc1ccc(S(C)(=O)=O)cc1-c1cn(C)c(=O)c2[nH]ccc12
4. CCN(CC)S(=O)(=O)c1cnc(OCC2CC2)c(-c2cn(C)c(=O)c3[nH]ccc23)c1
5. CN(C)c1ccc(NC(=O)c2ccc(Oc3ccc(F)cc3F)c(-c3cn(C)c(=O)c4[nH]ccc34)c2)cc1
6. Cc1ccc(F)c(Oc2ccc(S(C)(=O)=O)cc2-c2cn(C)c(=O)c3[nH]ccc23)c1

1.2
1.9
8.2
11.6
304
3.3
